# melting point values compiled below
Where a name gives a salt, the structure may show the parent alone.
endpoint: melting point

>>> measuredresult("OC(CN1CCCCC1)c1cc(C(F)(F)F)nc2c(C(F)(F)F)cccc12 (centres unmarked)")
"129.5 °C"
>>> measuredresult("O[C@@H](c1cc(C(F)(F)F)nc2c(C(F)(F)F)cccc12)[C@@H]1CCCN1 (as salt: hydrochloride)")
"246 °C (dec.)"
>>> measuredresult("OC(CN1CCOCC1)c1cc(C(F)(F)F)nc2c(C(F)(F)F)cccc12 (centres unmarked)")
"129 to 130 °C"
>>> measuredresult("Cc1cccc2c([C@@H](O)[C@@H]3CCCCN3)cc(O)nc12 (relative stereo)")
"225 °C (dec.)"
>>> measuredresult("Nc1cc([C@@H](O)[C@@H]2CCCCN2)c2ccccc2n1 (relative stereo) (as salt: salt)")
"225 °C (dec.)"
>>> measuredresult("O[C@H](c1cc(C(F)(F)F)nc2c(C(F)(F)F)cccc12)[C@@H]1CCCN1 (as salt: hydrochloride)")
"230 °C (dec.)"
>>> measuredresult("OC1(c2cc(C(F)(F)F)nc3c(C(F)(F)F)cccc23)CNC1")
"201 °C (dec.)"
>>> measuredresult("COC(CNCc1ccccc1)c1cc(C(F)(F)F)nc2c(C(F)(F)F)cccc12 (centres unmarked) (as salt: hydrochloride)")
"232 to 233 °C"

====

assayTarget: human adenosine A2A receptors (Homo sapiens)
Sequence (P29274 whole entry): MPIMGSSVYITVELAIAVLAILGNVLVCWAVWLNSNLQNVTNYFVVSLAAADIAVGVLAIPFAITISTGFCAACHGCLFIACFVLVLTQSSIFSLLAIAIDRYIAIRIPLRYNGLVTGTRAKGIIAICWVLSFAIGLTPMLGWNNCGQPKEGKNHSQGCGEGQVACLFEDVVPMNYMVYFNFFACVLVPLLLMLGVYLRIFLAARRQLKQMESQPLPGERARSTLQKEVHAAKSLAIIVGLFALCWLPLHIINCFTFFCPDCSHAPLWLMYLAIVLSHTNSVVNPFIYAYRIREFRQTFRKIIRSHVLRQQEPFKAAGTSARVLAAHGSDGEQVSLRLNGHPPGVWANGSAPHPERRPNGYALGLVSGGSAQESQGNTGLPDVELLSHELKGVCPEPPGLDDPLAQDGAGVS
Structures can show the parent of a compound that is named as a salt.
endpoint: Ki (nM)

>>> measuredresult("CC(C)CNCC(O)c1cc(C(F)(F)F)nc2c(C(F)(F)F)cccc12 (stereo not shown)")
1270
>>> measuredresult("CC(C)C[C@H](N)C(O)c1cc(C(F)(F)F)nc2c(C(F)(F)F)cccc12 (mixture of isomers)")
1210
>>> measuredresult("COc1cc([C@@H](O)[C@@H]2CCCCN2)c2cccc(C)c2n1 (racemic)")
1100
>>> measuredresult("O[C@H](c1cc(C(F)(F)F)nc2c(C(F)(F)F)cccc12)[C@@H]1CCCN1 [Example 42, Hydrochloride]")
462
>>> measuredresult("CC[C@H](C)[C@H](N)[C@@H](O)c1cc(C(F)(F)F)nc2c(C(F)(F)F)cccc12 [Example 40, Hydrochloride]")
609
>>> measuredresult("FC(F)(F)c1cc([C@H]2OCCN3CCCC[C@@H]23)c2cccc(C(F)(F)F)c2n1")
1170
>>> measuredresult("O[C@@H](c1cc(C(F)(F)F)nc2c(C(F)(F)F)cccc12)[C@@H]1CCCN1 [Example 45, Hydrochloride]")
2060
>>> measuredresult("O[C@@H](c1cc(C(F)(F)F)nc2ccccc12)[C@H]1CCCCN1 (racemic)")
404
>>> measuredresult("CO[C@H](c1cc(C(F)(F)F)nc2c(C(F)(F)F)cccc12)[C@@H]1CCCCN1 [Example 32, Hydrochloride]")
226
>>> measuredresult("OC(CNCc1ccccc1)c1cc(C(F)(F)F)nc2c(C(F)(F)F)cccc12 (stereo not shown)")
2450
>>> measuredresult("FC(F)(F)c1cc([C@H]2OCN3CCCC[C@H]23)c2cccc(C(F)(F)F)c2n1")
192
>>> measuredresult("OC(CNc1ccccc1)c1cc(C(F)(F)F)nc2c(C(F)(F)F)cccc12 (stereo not shown)")
2730
>>> measuredresult("O[C@H](c1cc(C(F)(F)F)nc2c(C(F)(F)F)cccc12)[C@@H]1CCCCN1Cc1ccccc1")
182
